Attribution: ChEMBL document CHEMBL3621080

- TEST_NAME: Antiproliferative activity against human BxPC3 cells assessed as growth inhibition incubated for 48 hrs by MTT assay
- Type: functional, cell-based
- DETAILS: BXPC-3, 48 h
READOUT_TYPE: pIC50
Reminder that pIC50 is minus the log10 of a molar concentration.

QUERY: Note pIC50 for the compound shown: Cl.O=C(CN1CCCCC1)NC1(CO)CSC2=C1C(=O)c1ccccc1C2=O (configuration not stated)
RESULT: 5.60

QUERY: Note pIC50 for the compound shown: O=C(NC1(C(=O)NCc2ccc(Cl)cc2)CSC2=C1C(=O)c1ccccc1C2=O)c1ccc(Cl)cc1 (configuration not stated)
RESULT: 6.18

QUERY: Note pIC50 for the compound shown: Cl.O=C(CN1CCCCC1)NC1(C(=O)NCc2ccc(Cl)cc2)CSC2=C1C(=O)c1ccccc1C2=O (configuration not stated)
RESULT: 6.08

QUERY: Note pIC50 for the compound shown: O=C(CNCc1ccc(Cl)cc1)NC1(CO)CSC2=C1C(=O)c1ccccc1C2=O (configuration not stated)
RESULT: 5.77

QUERY: Note pIC50 for the compound shown: O=C(CNc1ccc(Cl)cc1)NC1(CO)CSC2=C1C(=O)c1ccccc1C2=O (configuration not stated)
RESULT: 5.66

QUERY: Note pIC50 for the compound shown: COc1cccc2c1C(=O)c1c(O)c3c(c(O)c1C2=O)C[C@@](O)(C(=O)CO)C[C@@H]3O[C@H]1C[C@H](N)[C@H](O)[C@H](C)O1
RESULT: 5.75
